Target: recombinant PRL-3 (Homo sapiens, UniProt O75365)
Construct: 6xHis (N, cleaved yes); made in house; host or cells: E. coli One Shot BL21 Star
Sequence (O75365 whole entry): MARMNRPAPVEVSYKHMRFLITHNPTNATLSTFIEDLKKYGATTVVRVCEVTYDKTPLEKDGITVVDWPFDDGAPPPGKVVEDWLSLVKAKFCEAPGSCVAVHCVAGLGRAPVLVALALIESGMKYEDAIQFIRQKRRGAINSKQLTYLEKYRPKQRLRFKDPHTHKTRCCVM
Experiment: In vitro phosphatase assay (DiFMUP hydrolysis), PRL-3; also: test concentration or dose not given here
Type: biochemical
Conditions: FDA-approved drug screen; compared to DMSO
Where a name gives a salt, the structure may show the parent alone.
endpoint.name: % Phosphatase Activity (compared to DMSO) PRL-3 (%)
The reply should be a number in %, with the unit left off.

NNC(=O)c1ccncc1.Nc1ccc(C(=O)O)c(O)c1 [Pasiniazid]; 82
O=[N+]([O-])O[C@@H]1CO[C@H]2[C@@H]1OC[C@@H]2O [Isosorbide Mononitrate]; 81
COC(=O)C1=C(C)NC(C)=C(C(=O)OCCN2CCN(C(c3ccccc3)c3ccccc3)CC2)C1c1cccc([N+](=O)[O-])c1.Cl.Cl (stereo not shown) [Manidipine 2HCl]; 82
Cn1c(=O)c2c(ncn2CC2OCCO2)n(C)c1=O [Doxofylline]; 79
O=C1CN2Cc3c(ccc(Cl)c3Cl)N=C2N1 [Anagrelide HCl]; 80

Kindly state the measured % Phosphatase Activity (compared to DMSO) PRL-3 obtained for CC(C)Cc1ccc(C(C)C(=O)O)cc1 (stereo not shown) [Ibuprofen] with recombinant PRL-3 (Homo sapiens, UniProt O75365).
82

Kindly state the measured % Phosphatase Activity (compared to DMSO) PRL-3 obtained for O=C(/C=C/c1cccc(S(=O)(=O)Nc2ccccc2)c1)NO [Belinostat (PXD101)] with recombinant PRL-3 (Homo sapiens, UniProt O75365).
80

---

Target: recombinant PRL-1 (Homo sapiens, UniProt Q93096)
Construct: 6xHis (N, cleaved yes); made in house; host or cells: E. coli One Shot BL21 Star
Sequence (Q93096 whole entry): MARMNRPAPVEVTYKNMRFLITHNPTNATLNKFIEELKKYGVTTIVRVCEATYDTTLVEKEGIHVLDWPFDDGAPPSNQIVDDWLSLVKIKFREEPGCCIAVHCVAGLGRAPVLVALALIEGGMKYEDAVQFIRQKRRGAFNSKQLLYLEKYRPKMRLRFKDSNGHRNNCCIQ
Assay: In vitro phosphatase assay (DiFMUP hydrolysis), PRL-1; also: test concentration or dose not given here
Format: biochemical
Conditions: FDA-approved drug screen; compared to DMSO
Counter-ions that a name gives are not always drawn.
endpoint.name: % Phosphatase Activity (compared to DMSO) PRL-1 (%)
The reply should be a number in %, with the unit left off.

NC(=O)N/N=C/c1ccc([N+](=O)[O-])o1 [Nitrofural]; 82

Endpoint output: % Phosphatase Activity (compared to DMSO) PRL-1 of Cc1ccc(C(=O)N(CCCN)[C@@H](c2nc3cc(Cl)ccc3c(=O)n2Cc2ccccc2)C(C)C)cc1 [Ispinesib (SB-715992)] . Value?
103

Endpoint output: % Phosphatase Activity (compared to DMSO) PRL-1 of Oc1c(Cl)cc(Cl)cc1Sc1cc(Cl)cc(Cl)c1O [Bithionol, reference compound] . Value?
52

Endpoint output: % Phosphatase Activity (compared to DMSO) PRL-1 of CN1CC2c3ccccc3Oc3ccc(Cl)cc3C2C1 (centres unmarked) [Asenapine] . Value?
98

Endpoint output: % Phosphatase Activity (compared to DMSO) PRL-1 of Cc1nc(Nc2ncc(C(=O)Nc3c(C)cccc3Cl)s2)cc(N2CCN(CCO)CC2)n1 [Dasatinib Monohydrate] . Value?
97

Endpoint output: % Phosphatase Activity (compared to DMSO) PRL-1 of C[C@H]1C[C@@H]2[C@H]([C@@H](O)C[C@@]3(C)[C@H]2CC[C@]3(O)C(=O)CO)[C@@]2(C)C=CC(=O)C=C12 [Methylprednisolone] . Value?
90

Endpoint output: % Phosphatase Activity (compared to DMSO) PRL-1 of N#CC1(c2ccc(NC(=O)c3cccnc3NCc3ccncc3)cc2)CCCC1 [Apatinib] . Value?
100

Endpoint output: % Phosphatase Activity (compared to DMSO) PRL-1 of O=C(c1ccc(OCCN2CCCCC2)cc1)c1c(-c2ccc(O)cc2)sc2cc(O)ccc12 [Raloxifene HCl] . Value?
95

Endpoint output: % Phosphatase Activity (compared to DMSO) PRL-1 of CCCCCOC(=O)Nc1nc(=O)n([C@@H]2O[C@H](C)[C@@H](O)[C@H]2O)cc1F [Capecitabine] . Value?
108

Endpoint output: % Phosphatase Activity (compared to DMSO) PRL-1 of CC(=O)C1C(=O)C=C(C)OC1=O (centres unmarked) [Dehydroacetic acid] . Value?
99

Endpoint output: % Phosphatase Activity (compared to DMSO) PRL-1 of NS(=O)(=O)c1cc2c(cc1Cl)N=C(CSCc1ccccc1)NS2(=O)=O [Benzthiazide] . Value?
111
